Cited source for all entries: patent US4166861A

- ASSAY PROTOCOL: Toxicity (LD50)
- Format: in vivo
- CONDITION: in vivo, ip; read-out: LD50 i.p.
RECORDED ENDPOINT: LD50

>>> measured_result("Oc1cc(O)c2c(c1)O[C@H](c1ccc(O)c(O)c1)[C@@H](O)C2 [Catechin, catechin, reference compound]")
"> 1000 mg/kg"
